Hey, just so you know, these numbers are from patent US8202865B2.

Molecular target: S1P1 (Homo sapiens)
Sequence (P21453 whole entry, species assumed): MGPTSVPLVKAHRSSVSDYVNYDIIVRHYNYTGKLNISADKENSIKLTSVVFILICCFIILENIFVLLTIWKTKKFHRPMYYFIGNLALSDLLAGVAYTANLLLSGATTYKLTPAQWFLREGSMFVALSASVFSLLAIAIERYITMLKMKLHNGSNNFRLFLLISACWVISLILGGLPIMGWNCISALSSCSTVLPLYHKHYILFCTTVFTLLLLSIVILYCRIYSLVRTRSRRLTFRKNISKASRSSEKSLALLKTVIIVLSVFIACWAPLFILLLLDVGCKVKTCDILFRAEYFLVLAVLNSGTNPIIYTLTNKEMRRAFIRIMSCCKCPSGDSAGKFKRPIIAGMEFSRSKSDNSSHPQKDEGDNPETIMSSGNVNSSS
Counter-ions that a name gives are not always drawn.
observed.property: Ki (nM)
// note: answer is a bare numeric in nM

molecule	assayed.system	uom	measurement
COCc1cc(-c2nc(-c3ccc(C(=O)NCCNC(C)=O)c(F)c3)no2)ccc1-c1ccccc1C	S1P1 (Homo sapiens)	nM	3.4
COCc1cc(-c2nc(-c3cccc(CN(C)CCO)c3)no2)ccc1-c1ccccc1C [Example 186, Hydrochloride salt]	S1P1 (Homo sapiens)	nM	0.8

Item under review: CCc1ccccc1-c1ccc(-c2nc(-c3ccc(F)c(CN(C)CC(=O)O)c3)no2)cc1COC [Example 147, Hydrochloride salt] . Reported Ki?
2

Item under review: COCc1cc(-c2nc(-c3ccc(C(=O)NCCC(=O)O)c(F)c3)no2)ccc1-c1ccccc1C . Reported Ki?
2

Item under review: COCc1cc(-c2nc(-c3ccc(C(=O)O)c(F)c3)no2)ccc1-c1ccccc1C(F)(F)F . Reported Ki?
48

Item under review: CC(C)COc1ncc(-c2nc(-c3ccc(C(=O)O)c(F)c3)no2)cc1Cl . Reported Ki?
2930

Item under review: Cc1cscc1-c1ccc(-c2nc(-c3ccc(C(=O)O)c(F)c3)no2)cc1C(F)(F)F . Reported Ki?
90

###

Entries and their measured pEC50 follow.
Molecular target: S1P1 (Homo sapiens)
Assay: 35S-GTPγS binding, S1P1 membranes
Conditions: membranes from CHO cells expressing S1P1; 60 min 30° C.
Scale: negative log10 of molar concentration, which is what pEC50 denotes.

Cc1ccccc1-c1ccc(-c2nc(-c3ccc(C(=O)O)cc3F)no2)cc1C 5.45

Item under review: COCc1cc(-c2nc(-c3cc(F)c(C(=O)O)cc3F)no2)ccc1-c1ccccc1C . Reported pEC50?
7.19

Item under review: COCc1ccccc1-c1ccc(-c2nc(-c3ccc(C(=O)O)c(F)c3)no2)cc1C . Reported pEC50?
5.70

Item under review: COCc1cc(-c2nc(-c3cccc(C(=O)NCCC#N)c3)no2)ccc1-c1ccccc1C . Reported pEC50?
8.62

###

Molecular target: S1P1 (Homo sapiens)
Experiment: 35S-GTPγS binding, S1P1 membranes
Settings: membranes from CHO cells expressing S1P1; 60 min 30° C.
Where a name gives a salt, the structure may show the parent alone.
observed.property: log10 EC50 (log10 of the value in nM)
Note: values are log10 of EC50 expressed in nM.

Worked cases, log10 EC50 given:
molecule	log10 EC50
CCC(C)Oc1ncc(-c2nc(-c3ccc(OCC(=O)O)c(F)c3)no2)cc1Cl (centres unmarked) [Example 50]	2.42
COCc1cc(-c2nc(-c3cccc(CO)c3)no2)ccc1-c1ccccc1C [Example 189]	0.32
CC1CCCCN1c1ccc(-c2nc(-c3ccc(F)c(C(=O)O)c3)no2)cc1C(F)(F)F (centres unmarked) [Example 33]	2.26
CCOc1ccccc1-c1ccc(-c2nc(-c3ccc(C(=O)O)c(F)c3)no2)cc1COC [Example 90]	2.68
Cc1cc(-c2nc(-c3ccc(C(=O)O)c(F)c3)no2)ccc1-c1ccccc1-c1ccccc1 [Example 31]	3.38

Item under review: COCc1cc(-c2nc(-c3ccc(C(=O)O)c(F)c3)no2)ccc1-c1ccccc1C(F)(F)F [Example 86] . Reported log10 EC50?
2.19

Item under review: CCOC(=O)CCCOc1ccc(-c2noc(-c3ccc(N4CCCCC4C)c(COC)c3)n2)cc1F (centres unmarked) [Example 163] . Reported log10 EC50?
0.74

Item under review: COCc1cc(-c2nc(-c3ccc(F)c(CN(C)CC(=O)O)c3)no2)ccc1OC(C)C [Example 158, Hydrochloride salt] . Reported log10 EC50?
1.00
